Biological target: Recombinant wild type LRRK2 protein (Homo sapiens, UniProt Q5S007)
Construct: purchased Life Technologies PR8604B
Sequence (Q5S007 whole entry): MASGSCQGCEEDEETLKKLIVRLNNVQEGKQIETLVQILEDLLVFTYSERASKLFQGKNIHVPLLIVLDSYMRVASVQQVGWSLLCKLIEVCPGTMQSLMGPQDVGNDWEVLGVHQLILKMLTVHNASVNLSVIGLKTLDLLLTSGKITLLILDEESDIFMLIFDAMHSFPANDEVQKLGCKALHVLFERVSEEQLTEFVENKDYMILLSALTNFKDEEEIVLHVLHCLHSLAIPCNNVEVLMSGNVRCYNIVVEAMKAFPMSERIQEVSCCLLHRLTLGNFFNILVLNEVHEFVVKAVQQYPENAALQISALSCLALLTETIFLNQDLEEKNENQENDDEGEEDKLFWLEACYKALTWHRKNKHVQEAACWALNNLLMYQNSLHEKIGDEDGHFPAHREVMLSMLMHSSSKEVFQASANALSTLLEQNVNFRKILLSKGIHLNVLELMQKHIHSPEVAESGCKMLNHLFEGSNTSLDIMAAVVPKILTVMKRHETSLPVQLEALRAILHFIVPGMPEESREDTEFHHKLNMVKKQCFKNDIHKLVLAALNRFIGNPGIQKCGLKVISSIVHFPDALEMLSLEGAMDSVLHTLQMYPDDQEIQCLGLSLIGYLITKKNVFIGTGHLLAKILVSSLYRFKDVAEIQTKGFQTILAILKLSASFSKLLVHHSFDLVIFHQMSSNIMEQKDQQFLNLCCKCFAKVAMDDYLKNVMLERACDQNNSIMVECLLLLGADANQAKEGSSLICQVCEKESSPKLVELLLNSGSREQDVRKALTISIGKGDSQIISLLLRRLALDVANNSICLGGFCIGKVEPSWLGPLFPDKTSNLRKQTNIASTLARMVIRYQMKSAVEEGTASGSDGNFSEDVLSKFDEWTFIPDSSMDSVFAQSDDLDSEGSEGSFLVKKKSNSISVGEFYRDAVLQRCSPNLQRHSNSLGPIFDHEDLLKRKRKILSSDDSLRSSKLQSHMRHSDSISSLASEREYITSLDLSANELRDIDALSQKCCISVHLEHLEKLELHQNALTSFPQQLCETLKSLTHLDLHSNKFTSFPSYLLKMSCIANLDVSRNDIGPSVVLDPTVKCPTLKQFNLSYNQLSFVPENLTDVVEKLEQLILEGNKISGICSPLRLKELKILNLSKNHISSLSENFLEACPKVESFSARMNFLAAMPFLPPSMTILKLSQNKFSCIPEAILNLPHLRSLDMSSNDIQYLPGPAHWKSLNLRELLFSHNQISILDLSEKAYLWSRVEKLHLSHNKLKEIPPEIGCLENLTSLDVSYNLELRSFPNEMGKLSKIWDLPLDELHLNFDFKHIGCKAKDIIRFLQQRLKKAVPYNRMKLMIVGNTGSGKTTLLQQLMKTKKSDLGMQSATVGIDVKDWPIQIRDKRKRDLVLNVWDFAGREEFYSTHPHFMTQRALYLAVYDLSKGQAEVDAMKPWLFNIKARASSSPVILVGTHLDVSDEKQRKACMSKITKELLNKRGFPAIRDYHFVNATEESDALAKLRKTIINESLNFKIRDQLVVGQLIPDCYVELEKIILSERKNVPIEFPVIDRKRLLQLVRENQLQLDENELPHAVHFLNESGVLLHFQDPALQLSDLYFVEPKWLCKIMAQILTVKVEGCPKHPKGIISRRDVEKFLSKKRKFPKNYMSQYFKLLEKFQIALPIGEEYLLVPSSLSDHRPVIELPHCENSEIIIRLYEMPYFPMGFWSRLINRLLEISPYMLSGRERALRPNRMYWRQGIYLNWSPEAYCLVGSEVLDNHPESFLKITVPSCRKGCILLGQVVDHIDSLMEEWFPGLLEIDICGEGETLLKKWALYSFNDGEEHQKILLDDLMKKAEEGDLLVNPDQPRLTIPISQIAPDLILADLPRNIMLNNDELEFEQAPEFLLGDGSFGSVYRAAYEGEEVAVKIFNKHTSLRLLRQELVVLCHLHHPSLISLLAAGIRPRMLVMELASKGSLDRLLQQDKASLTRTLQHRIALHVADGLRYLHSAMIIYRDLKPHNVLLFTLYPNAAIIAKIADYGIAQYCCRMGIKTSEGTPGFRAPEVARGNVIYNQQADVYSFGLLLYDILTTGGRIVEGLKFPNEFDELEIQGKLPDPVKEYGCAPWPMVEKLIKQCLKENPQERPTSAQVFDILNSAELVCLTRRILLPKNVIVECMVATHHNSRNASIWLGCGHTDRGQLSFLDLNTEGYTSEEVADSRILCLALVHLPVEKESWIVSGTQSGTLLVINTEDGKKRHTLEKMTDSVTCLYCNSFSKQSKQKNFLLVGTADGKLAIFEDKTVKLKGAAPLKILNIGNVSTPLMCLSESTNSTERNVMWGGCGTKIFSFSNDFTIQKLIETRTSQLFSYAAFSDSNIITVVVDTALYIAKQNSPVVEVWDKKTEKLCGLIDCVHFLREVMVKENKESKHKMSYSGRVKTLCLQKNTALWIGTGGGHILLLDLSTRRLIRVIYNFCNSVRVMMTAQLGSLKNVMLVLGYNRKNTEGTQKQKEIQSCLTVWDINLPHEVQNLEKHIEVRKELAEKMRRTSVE
Test: LanthaScreen Kinase Activity Assay (TR-FRET), wild type LRRK2
Format: biochemical
Settings: class symbols; 25 μM ATP, 400 nM LRRKtide, 2.9 nM kinase, 60 min at room temperature; read-out: LRRK2 WT IC50
Protocol: LRRK2 kinase activity was measured using a LanthaScreen™ Kinase Activity Assay from ThermoFisher Scientific. Recombinant wild type or G2019S-LRRK2 protein (Life Technologies, PR8604B or PV4881, respectively), was incubated with a fluorescein-labeled peptide substrate called LRRKtide that is based upon ezrin/radixin/moesin (ERM) (Life Technologies, PV4901) in the presence of ATP and serially diluted compound. […]
PARAMETER: IC50

q: Bench note: what IC50 did "Cc1cc2cncn2c(C)c1C(=O)Nc1ccc2[nH]nc(-c3ccccc3)c2c1" show?
a: ≤ 100 nM

q: Bench note: what IC50 did "COc1cccc(-c2n[nH]c3ccc(NC(=O)c4c(F)cc5c(cnn5C)c4F)cc23)c1" show?
a: ≤ 100 nM

q: Bench note: what IC50 did "Cc1nn2ccncc2c1C(=O)Nc1ccc2[nH]nc(-c3ccoc3)c2c1" show?
a: 100 to 1000 nM

q: Bench note: what IC50 did "COc1cnccc1-c1n[nH]c2ccc(NC(=O)c3c(F)cc4c(cnn4C)c3F)cc12" show?
a: 100 to 1000 nM

q: Bench note: what IC50 did "Cc1cc2c(cnn2C)cc1C(=O)Nc1ccc2[nH]nc(-c3ccoc3)c2c1" show?
a: ≤ 100 nM

* * *

Target: Recombinant wild type LRRK2 protein (Homo sapiens)
Construct: purchased Life Technologies PR8604B
Experiment: LanthaScreen Kinase Activity Assay (TR-FRET), wild type LRRK2
Format: biochemical
Conditions: class symbols; 25 μM ATP, 400 nM LRRKtide, 2.9 nM kinase, 60 min at room temperature; read-out: LRRK2 WT IC50
Experimental: LRRK2 kinase activity was measured using a LanthaScreen™ Kinase Activity Assay from ThermoFisher Scientific. Recombinant wild type or G2019S-LRRK2 protein (Life Technologies, PR8604B or PV4881, respectively), was incubated with a fluorescein-labeled peptide substrate called LRRKtide that is based upon ezrin/radixin/moesin (ERM) (Life Technologies, PV4901) in the presence of ATP and serially diluted compound. […]
pIC50: −log10 of the molar value.
PARAMETER: pIC50

q: Bench note: what pIC50 did Cc1nc2cncn2c(C)c1C(=O)Nc1ccc2[nH]nc(-c3ccoc3)c2c1 [Example 112] show?
a: 6.00 to 7.00

q: Bench note: what pIC50 did Cc1n[nH]c2ccc(NC(=O)c3c(F)cc4c(cnn4C)c3F)cc12 [Example 51] show?
a: 6.00 to 7.00

q: Bench note: what pIC50 did Cc1n[nH]c2ccc(NC(=O)c3ccc4nn[nH]c4c3)cc12 [Example 9] show?
a: 5.00 to 6.00

q: Bench note: what pIC50 did Cc1n[nH]c2ccc(NC(=O)c3ccc4nnc(C)n4c3)cc12 [Example 8] show?
a: 5.00 to 6.00

q: Bench note: what pIC50 did Cn1ncc2c(F)c(C(=O)Nc3ccc4[nH]nc(-n5ccnc5)c4c3)c(F)cc21 [Example 141] show?
a: 6.00 to 7.00

q: Bench note: what pIC50 did Cc1cn2nc(C(=O)Nc3ccc4[nH]nc(-c5ccoc5)c4c3)cc2c(C)n1 [Example 163] show?
a: ≥ 7.00

q: Bench note: what pIC50 did Cc1cnccc1-c1n[nH]c2ccc(NC(=O)c3c(F)cc4c(cnn4C)c3F)cc12 [Example 40] show?
a: 5.00 to 6.00

q: Bench note: what pIC50 did O=C(Nc1ccc2[nH]nc(-c3ccoc3)c2c1)c1ccn2ccnc2c1 [Example 118] show?
a: 6.00 to 7.00

q: Bench note: what pIC50 did Cc1c(C(=O)Nc2ccc3[nH]nc(-c4ccoc4)c3c2)cnc2cncn12 [Example 113] show?
a: ≥ 7.00

q: Bench note: what pIC50 did Cn1ncc2c(F)c(C(=O)Nc3ccc4[nH]nc(-c5ccccc5F)c4c3)c(F)cc21 [Example 78] show?
a: 6.00 to 7.00

q: Bench note: what pIC50 did COc1ccccc1-c1n[nH]c2ccc(NC(=O)c3c(F)cc4c(cnn4C)c3F)cc12 [Example 85] show?
a: 5.00 to 6.00

q: Bench note: what pIC50 did Cc1cccc(-c2n[nH]c3ccc(NC(=O)c4c(F)cc5c(cnn5C)c4F)cc23)n1 [Example 71] show?
a: 6.00 to 7.00

q: Bench note: what pIC50 did Cc1c(C(=O)Nc2ccc3[nH]nc(-c4cnco4)c3c2)ncc2c1cnn2C [Example 169] show?
a: 6.00 to 7.00

q: Bench note: what pIC50 did Cc1c(C(=O)Nc2ccc3[nH]nc(-c4ccncc4)c3c2)ccc2[nH]nnc12 [Example 12] show?
a: 6.00 to 7.00

* * *

Task for the reader: assign each of the following compounds its reported pIC50.
Target: Recombinant G2019S-LRRK2 protein (Homo sapiens, UniProt Q5S007, G2019S)
Sequence (Q5S007 whole entry G2019S): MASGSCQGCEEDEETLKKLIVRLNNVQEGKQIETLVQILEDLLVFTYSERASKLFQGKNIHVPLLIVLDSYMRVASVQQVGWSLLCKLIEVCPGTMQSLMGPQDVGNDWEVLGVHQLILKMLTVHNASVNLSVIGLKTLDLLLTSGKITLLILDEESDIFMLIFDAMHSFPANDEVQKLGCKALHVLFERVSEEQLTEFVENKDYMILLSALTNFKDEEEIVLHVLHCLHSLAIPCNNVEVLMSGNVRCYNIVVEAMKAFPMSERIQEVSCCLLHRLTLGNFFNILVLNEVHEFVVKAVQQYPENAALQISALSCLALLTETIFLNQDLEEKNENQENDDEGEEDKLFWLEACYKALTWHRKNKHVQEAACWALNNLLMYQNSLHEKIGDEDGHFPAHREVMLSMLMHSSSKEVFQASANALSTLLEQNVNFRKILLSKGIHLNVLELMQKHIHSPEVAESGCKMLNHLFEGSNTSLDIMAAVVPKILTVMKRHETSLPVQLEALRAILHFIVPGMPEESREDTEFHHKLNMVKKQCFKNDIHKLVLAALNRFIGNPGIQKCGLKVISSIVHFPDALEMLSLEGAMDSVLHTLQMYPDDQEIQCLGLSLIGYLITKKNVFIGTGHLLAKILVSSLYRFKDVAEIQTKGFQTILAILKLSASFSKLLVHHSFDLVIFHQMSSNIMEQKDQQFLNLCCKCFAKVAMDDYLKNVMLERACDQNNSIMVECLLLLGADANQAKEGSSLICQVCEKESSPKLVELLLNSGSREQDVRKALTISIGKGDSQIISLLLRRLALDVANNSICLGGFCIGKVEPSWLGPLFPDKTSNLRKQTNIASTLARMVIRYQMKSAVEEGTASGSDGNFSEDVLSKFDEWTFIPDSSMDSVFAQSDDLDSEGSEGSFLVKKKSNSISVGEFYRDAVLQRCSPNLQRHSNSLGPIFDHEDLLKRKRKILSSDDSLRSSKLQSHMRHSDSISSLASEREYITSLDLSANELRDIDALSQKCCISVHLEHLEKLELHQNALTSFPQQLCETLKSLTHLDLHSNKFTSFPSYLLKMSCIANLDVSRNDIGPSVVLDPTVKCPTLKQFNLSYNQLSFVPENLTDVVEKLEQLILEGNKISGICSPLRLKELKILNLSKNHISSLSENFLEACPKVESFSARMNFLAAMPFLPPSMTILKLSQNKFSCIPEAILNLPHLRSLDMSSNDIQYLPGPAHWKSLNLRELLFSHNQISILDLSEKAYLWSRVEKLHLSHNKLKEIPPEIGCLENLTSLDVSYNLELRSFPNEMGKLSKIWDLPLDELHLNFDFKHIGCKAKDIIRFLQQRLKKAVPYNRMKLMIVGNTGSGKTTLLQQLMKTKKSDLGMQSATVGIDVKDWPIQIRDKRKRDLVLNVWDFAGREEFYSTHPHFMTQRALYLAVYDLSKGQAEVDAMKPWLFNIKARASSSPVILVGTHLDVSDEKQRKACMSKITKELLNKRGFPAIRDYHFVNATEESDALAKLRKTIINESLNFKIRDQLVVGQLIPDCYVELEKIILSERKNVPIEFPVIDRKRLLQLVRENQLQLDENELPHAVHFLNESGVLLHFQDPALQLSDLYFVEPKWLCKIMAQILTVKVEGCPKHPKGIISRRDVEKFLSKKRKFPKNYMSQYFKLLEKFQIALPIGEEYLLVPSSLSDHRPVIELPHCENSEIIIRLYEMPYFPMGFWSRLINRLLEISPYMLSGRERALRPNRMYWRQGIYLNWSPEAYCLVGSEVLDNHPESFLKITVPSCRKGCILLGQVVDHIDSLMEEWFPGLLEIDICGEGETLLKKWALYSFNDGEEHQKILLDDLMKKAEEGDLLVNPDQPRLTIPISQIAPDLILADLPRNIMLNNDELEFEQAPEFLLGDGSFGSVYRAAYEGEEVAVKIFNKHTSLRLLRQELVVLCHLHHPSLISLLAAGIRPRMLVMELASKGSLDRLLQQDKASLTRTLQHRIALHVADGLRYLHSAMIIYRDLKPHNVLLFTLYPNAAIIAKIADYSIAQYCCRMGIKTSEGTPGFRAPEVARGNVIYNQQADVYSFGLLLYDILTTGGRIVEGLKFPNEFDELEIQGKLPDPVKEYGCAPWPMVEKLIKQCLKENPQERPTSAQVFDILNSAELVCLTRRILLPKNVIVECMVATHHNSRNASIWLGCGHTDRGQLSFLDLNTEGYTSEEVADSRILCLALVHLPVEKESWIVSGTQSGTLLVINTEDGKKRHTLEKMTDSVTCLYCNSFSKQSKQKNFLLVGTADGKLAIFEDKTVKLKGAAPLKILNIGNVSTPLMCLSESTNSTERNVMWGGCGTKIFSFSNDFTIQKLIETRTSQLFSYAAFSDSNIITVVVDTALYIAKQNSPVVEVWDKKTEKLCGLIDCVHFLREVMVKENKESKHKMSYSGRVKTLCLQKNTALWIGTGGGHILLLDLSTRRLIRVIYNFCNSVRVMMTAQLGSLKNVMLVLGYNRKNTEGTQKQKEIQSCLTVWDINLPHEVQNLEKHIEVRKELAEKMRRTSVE
Test: LanthaScreen Kinase Activity Assay (TR-FRET), G2019S-LRRK2
Conditions: class symbols; 25 μM ATP, 400 nM LRRKtide, 2.9 nM kinase, 60 min at room temperature
pIC50: −log10 of the molar value.

q: Bench note: what pIC50 did "Cn1ncc2c(F)c(C(=O)Nc3ccc4[nH]nc(-c5ccccc5F)c4c3)c(F)cc21" show?
a: ≥ 7.00

q: Bench note: what pIC50 did "Cc1cc2cnnn2c(C)c1C(=O)Nc1ccc2[nH]nc(-c3ccoc3)c2c1" show?
a: ≥ 7.00

q: Bench note: what pIC50 did "CN(C)c1cccc(-c2n[nH]c3ccc(NC(=O)c4c(F)cc5c(cnn5C)c4F)cc23)c1" show?
a: ≥ 7.00

q: Bench note: what pIC50 did "Cn1ncc2cc(C(=O)Nc3ccc4[nH]nc(-c5ccoc5)c4c3)ccc21" show?
a: ≥ 7.00

q: Bench note: what pIC50 did "O=C(Nc1ccc2[nH]nc(-c3ccoc3)c2c1)c1cnc2nccn2c1" show?
a: ≥ 7.00

q: Bench note: what pIC50 did "Cc1cc2[nH]cnc2cc1C(=O)Nc1ccc2[nH]nc(Br)c2c1" show?
a: 6.00 to 7.00

q: Bench note: what pIC50 did "Cc1cc2nn(C)nc2cc1C(=O)Nc1ccc2[nH]nc(C)c2c1" show?
a: 5.00 to 6.00

q: Bench note: what pIC50 did "Cc1cc2c(C)nnn2c(C)c1C(=O)Nc1ccc2[nH]nc(-c3ccccc3)c2c1" show?
a: ≥ 7.00

q: Bench note: what pIC50 did "Cn1ncc2c(F)c(C(=O)Nc3ccc4[nH]nc(N5CC(C(=O)O)C5)c4c3)c(F)cc21" show?
a: 5.00 to 6.00

q: Bench note: what pIC50 did "Cc1nn(C)cc1-c1n[nH]c2ccc(NC(=O)c3c(F)cc4c(cnn4C)c3F)cc12" show?
a: ≥ 7.00
